# method: Storage stability of crystalline forms at 40° C. for 20 days, purity and content by HPLC
# Format: physicochemical
# run-parameters: Before storage, internal standard method
experimental-endpoint: Purity (%)
Please give a number only; it is taken to be in %.

COc1ccc2cccc(CCNC(C)=O)c2c1 [Crystalline form III] :: 99.9

What Purity value was documented for this compound, COc1ccc2cccc(CCNC(C)=O)c2c1 [Crystalline form II] ?
99.7

Another compound to check: COc1ccc2cccc(CCNC(C)=O)c2c1 [Crystalline form VI]
99.7

Another compound to check: COc1ccc2cccc(CCNC(C)=O)c2c1 [Crystalline form VII]
99.8

----------
# method: Storage stability of crystalline forms at 40° C. for 20 days, purity and content by HPLC
# Assay type: physicochemical
# run-parameters: Before storage, external standard method
# Experimental: Crystalline forms II, III, VI and VII (obtained through embodiment 3) are each placed in thermostatic containers at a temperature of 40° C. and stored for 20 days, with the stability of these crystalline samples being studied using the method of High Performance Liquid Chromatography. 1. […] In the mobile phase, crystalline forms II, III, VI and VII are distributed into 1 mg/mL solutions, 10 μL of each of which are then passed into a liquid chromatograph, with their chromatograms being recorded. […]
experimental-endpoint: Content

Reference set, count: 3
COc1ccc2cccc(CCNC(C)=O)c2c1 [Crystalline form II] :: 99.5%
COc1ccc2cccc(CCNC(C)=O)c2c1 [Crystalline form VI] :: 99.3%
COc1ccc2cccc(CCNC(C)=O)c2c1 [Crystalline form III] :: 99.5%

Now consider a different compound.
What Content value was documented for this compound, COc1ccc2cccc(CCNC(C)=O)c2c1 [Crystalline form VII] ?
99.8%

----------
# method: Measurement of water solubility (HPLC, external standard method)
# Type: physicochemical
# run-parameters: read-out: Solubility
# Excerpt: 3. Measurement of Water Solubility The HPLC method was used to determine water solubility, with measurements being made using an external standard method.
experimental-endpoint: solubility (µg/mL)
Please give a number only; it is taken to be in µg/mL.

What solubility value was documented for this compound, COc1ccc2cccc(CCNC(C)=O)c2c1 [Crystalline form VII] ?
330

----------
# method: Storage stability of crystalline forms at 40° C. for 20 days, purity and content by HPLC
# Format: physicochemical
# run-parameters: After storage in thermostatically controlled containers at 40° C. for 20 days, external standard method
# Procedure: Crystalline forms II, III, VI and VII (obtained through embodiment 3) are each placed in thermostatic containers at a temperature of 40° C. and stored for 20 days, with the stability of these crystalline samples being studied using the method of High Performance Liquid Chromatography. 1. […] In the mobile phase, crystalline forms II, III, VI and VII are distributed into 1 mg/mL solutions, 10 μL of each of which are then passed into a liquid chromatograph, with their chromatograms being recorded. […]
experimental-endpoint: Content (%)
Please give a number only; it is taken to be in %.

COc1ccc2cccc(CCNC(C)=O)c2c1 [Crystalline form III] :: 99.4
COc1ccc2cccc(CCNC(C)=O)c2c1 [Crystalline form II] :: 99.6
COc1ccc2cccc(CCNC(C)=O)c2c1 [Crystalline form VII] :: 99.6

Now consider a different molecule.
What Content value was documented for this molecule, COc1ccc2cccc(CCNC(C)=O)c2c1 [Crystalline form VI] ?
99.1
